System: Human immunodeficiency virus 1
Experiment Description: Antiviral activity against HIV1 RES056 expressing reverse transcriptase K103N + Y181C double mutant infected in human MT4 cells assessed as reduction in virus-induced cytopathic effect after 5 days by MTT assay
Type: functional, organism-based
Condition Context: Human immunodeficiency virus 1, RES056, MT4, 120 h
pEC50: −log10 of the molar value. Where a name gives a salt, the structure may show the parent alone.
Endpoint Label: pEC50

// pEC50 lookup, compound = CC(C)Nc1cccnc1N1CCN(C(=O)c2cc3cc(NS(C)(=O)=O)ccc3[nH]2)CC1 [DELAVIRDINE MESYLATE] , result: < 4.44

// pEC50 lookup, compound = "Cc1cc(C)c(Oc2cc(NC3CCN(Cc4cccc(C#N)c4)CC3)nc3ncnn23)c(C)c1" , result: < 4.60

// pEC50 lookup, compound = "Cc1cc(C)c(Oc2cc(NC3CCN(Cc4cc(F)ccc4F)CC3)nc3ncnn23)c(C)c1" , result: < 4.62

// pEC50 lookup, compound = "Cc1cc(C)c(Oc2cc(NC3CCN(Cc4ccccc4F)CC3)nc3ncnn23)c(C)c1" , result: < 4.60

// pEC50 lookup, compound = "Cc1ccc(CN2CCC(Nc3cc(Oc4c(C)cc(C)cc4C)n4ncnc4n3)CC2)cc1" , result: < 4.31

// pEC50 lookup, compound = "Cc1cc(C)c(Oc2cc(NC3CCN(Cc4cccc(Cl)c4)CC3)nc3ncnn23)c(C)c1" , result: < 4.70

// pEC50 lookup, compound = "Cc1cc(C)c(Oc2cc(NC3CCN(Cc4ccc(C#N)cc4)CC3)nc3ncnn23)c(C)c1" , result: < 4.85

// pEC50 lookup, compound = "Cc1cc(C)c(Oc2cc(NC3CCN(Cc4ccc(S(N)(=O)=O)cc4)CC3)nc3ncnn23)c(C)c1" , result: 4.66

// pEC50 lookup, compound = "Cc1cc(C)c(Oc2cc(NC3CCN(Cc4ccc([N+](=O)[O-])cc4)CC3)nc3ncnn23)c(C)c1" , result: < 4.74

// pEC50 lookup, compound = "Cc1cn([C@H]2C[C@H](N=[N+]=[N-])[C@@H](CO)O2)c(=O)[nH]c1=O" , result: 8.00

// pEC50 lookup, compound = "Cc1cc(C)c(Oc2cc(NC3CCN(Cc4cccc(F)c4)CC3)nc3ncnn23)c(C)c1" , result: ≤ 4.41

// pEC50 lookup, compound = "COC(=O)c1ccc(NC(=O)CN2CCC(Nc3cc(Oc4c(C)cc(C)cc4C)n4ncnc4n3)CC2)c(Cl)c1" , result: < 4.07

// pEC50 lookup, compound = "CC(=O)c1ccc(CN2CCC(Nc3cc(Oc4c(C)cc(C)cc4C)n4ncnc4n3)CC2)cc1" , result: < 4.74

// pEC50 lookup, compound = "Cc1cc(C)c(Oc2cc(NC3CCN(Cc4c(F)cccc4F)CC3)nc3ncnn23)c(C)c1" , result: < 4.60

// pEC50 lookup, compound = "Cc1cc(C)c(Oc2cc(NC3CCN(CC(=O)Nc4ccc(C(=O)O)cc4Br)CC3)nc3ncnn23)c(C)c1" , result: < 4.05

// pEC50 lookup, compound = "Cc1cc(C)c(Oc2cc(NC3CCN(Cc4ccc(C(N)=O)cc4)CC3)nc3ncnn23)c(C)c1" , result: < 4.62

// pEC50 lookup, compound = "Cc1cc(C)c(Oc2cc(NC3CCN(CC4CCCCC4)CC3)nc3ncnn23)c(C)c1" , result: < 4.89

// pEC50 lookup, compound = "Cc1cc(C)c(Oc2cc(NC3CCN(Cc4ccccc4C#N)CC3)nc3ncnn23)c(C)c1" , result: < 4.57

----------
Consider the following compounds; for each one, report its selectivity ratio.
Experiment Description: Selectivity index, ratio of CC50 for mock-infected human MT4 cells to EC50 for HIV1 RES056 expressing reverse transcriptase K103N + Y181C double mutant
Type: toxicity, cell-based
Condition Context: read-out: Ratio CC50/EC50
Could you respond with only the numeric value?

// selectivity ratio lookup, compound = "Cc1cc(C)c(Oc2cc(NC3CCN(Cc4ccncc4)CC3)nc3ncnn23)c(C)c1" , result: 7

// selectivity ratio lookup, compound = "Cc1cc(C)c(Oc2cc(NC3CCN(Cc4ccc(S(N)(=O)=O)cc4)CC3)nc3ncnn23)c(C)c1" , result: 2

----------
Experiment Description: Selectivity index, ratio of CC50 for mock-infected human MT4 cells to EC50 for HIV1 3B infected in human MT4 cells
Type: toxicity, cell-based
Condition Context: mock-infected MT4 cells and MT4 cells infected with HIV1 3B, read-out: Ratio CC50/EC50
Endpoint Label: selectivity ratio
Could you respond with only the numeric value?

// selectivity ratio lookup, compound = "Cc1cc(C)c(Oc2cc(NC3CCN(Cc4c(F)cccc4F)CC3)nc3ncnn23)c(C)c1" , result: 57

// selectivity ratio lookup, compound = "CC(=O)c1ccc(CN2CCC(Nc3cc(Oc4c(C)cc(C)cc4C)n4ncnc4n3)CC2)cc1" , result: 2060

// selectivity ratio lookup, compound = "Cc1cc(C)c(Oc2cc(NC3CCN(Cc4ccc(C#N)cc4)CC3)nc3ncnn23)c(C)c1" , result: 689

// selectivity ratio lookup, compound = "Cc1cc(C)c(Oc2cc(NC3CCN(Cc4ccncc4)CC3)nc3ncnn23)c(C)c1" , result: 2650

// selectivity ratio lookup, compound = "Cc1ccc(CN2CCC(Nc3cc(Oc4c(C)cc(C)cc4C)n4ncnc4n3)CC2)cc1" , result: 679

// selectivity ratio lookup, compound = "Cc1cc(C)c(Oc2cc(NC3CCN(Cc4ccc(Br)cc4)CC3)nc3ncnn23)c(C)c1" , result: 320

// selectivity ratio lookup, compound = "COC(=O)c1ccc(NC(=O)CN2CCC(Nc3cc(Oc4c(C)cc(C)cc4C)n4ncnc4n3)CC2)c(Cl)c1" , result: 315

// selectivity ratio lookup, compound = "Cc1cc(C)c(Oc2cc(NC3CCN(Cc4ccc([N+](=O)[O-])cc4)CC3)nc3ncnn23)c(C)c1" , result: 522

// selectivity ratio lookup, compound = "COC(=O)c1ccc(CN2CCC(Nc3cc(Oc4c(C)cc(C)cc4C)n4ncnc4n3)CC2)cc1" , result: 686

// selectivity ratio lookup, compound = "Cc1cc(C)c(Oc2cc(NC3CCN(Cc4ccc(S(C)(=O)=O)cc4)CC3)nc3ncnn23)c(C)c1" , result: 2550

// selectivity ratio lookup, compound = "Cc1cc(C)c(Oc2cc(NC3CCN(Cc4ccccc4C)CC3)nc3ncnn23)c(C)c1" , result: 590

// selectivity ratio lookup, compound = "Cc1cc(C)c(Oc2cc(NC3CCN(Cc4cccc(Cl)c4)CC3)nc3ncnn23)c(C)c1" , result: 1640

// selectivity ratio lookup, compound = "Cc1cc(C)c(Oc2cc(NC3CCN(Cc4cc(F)ccc4F)CC3)nc3ncnn23)c(C)c1" , result: 243

// selectivity ratio lookup, compound = "Cc1cc(C)c(Oc2cc(NC3CCN(Cc4ccccc4C#N)CC3)nc3ncnn23)c(C)c1" , result: 356

// selectivity ratio lookup, compound = "Cc1cc(C)c(Oc2cc(NC3CCN(CC4CCCCC4)CC3)nc3ncnn23)c(C)c1" , result: 50

// selectivity ratio lookup, compound = "Cc1cc(C)c(Oc2cc(NC3CCN(Cc4cccc(C#N)c4)CC3)nc3ncnn23)c(C)c1" , result: 1320

// selectivity ratio lookup, compound = "Cc1cc(C)c(Oc2cc(NC3CCN(Cc4ccc(C(N)=O)cc4)CC3)nc3ncnn23)c(C)c1" , result: 1180

// selectivity ratio lookup, compound = "Cc1cc(C)c(Oc2cc(NC3CCN(Cc4ccc(S(N)(=O)=O)cc4)CC3)nc3ncnn23)c(C)c1" , result: 1890

// selectivity ratio lookup, compound = "Cc1cc(C)c(Oc2cc(NC3CCN(Cc4ccccc4)CC3)nc3ncnn23)c(C)c1" , result: 708

// selectivity ratio lookup, compound = "Cc1cc(C)c(Oc2cc(NC3CCN(CC(=O)Nc4ccc(C(=O)O)cc4Br)CC3)nc3ncnn23)c(C)c1" , result: 39

// selectivity ratio lookup, compound = "Cc1cc(C)c(Oc2cc(NC3CCN(Cc4ccc(F)cc4F)CC3)nc3ncnn23)c(C)c1" , result: 255

// selectivity ratio lookup, compound = "Cc1cc(C)c(Oc2cc(NC3CCN(Cc4ccccc4F)CC3)nc3ncnn23)c(C)c1" , result: 520

// selectivity ratio lookup, compound = "Cc1cc(C)c(Oc2cc(NC3CCN(Cc4ccc(F)c(F)c4)CC3)nc3ncnn23)c(C)c1" , result: 346

// selectivity ratio lookup, compound = "Cc1cc(C)c(Oc2cc(NC3CCN(Cc4ccc(F)cc4)CC3)nc3ncnn23)c(C)c1" , result: 424

----------
Tested on: Human immunodeficiency virus 1
Experiment Description: Antiviral activity against HIV1 RES056 expressing reverse transcriptase K103N + Y181C double mutant infected in human MT4 cells assessed as reduction in virus-induced cytopathic effect after 5 days by MTT assay
Type: functional, organism-based
Condition Context: Human immunodeficiency virus 1, RES056, MT4, 120 h
Consider the following molecules; for each one, report its EC50.

Lab note: molecule "Cc1cc(C)c(Oc2cc(NC3CCN(Cc4ccc(Br)cc4)CC3)nc3ncnn23)c(C)c1" tested on Human immunodeficiency virus 1; recorded EC50 was > 30 µM

Lab note: molecule "COC(=O)c1ccc(CN2CCC(Nc3cc(Oc4c(C)cc(C)cc4C)n4ncnc4n3)CC2)cc1" tested on Human immunodeficiency virus 1; recorded EC50 was > 10 µM

Lab note: molecule "Cc1cc(C)c(Oc2cc(NC3CCN(Cc4ccc(F)c(F)c4)CC3)nc3ncnn23)c(C)c1" tested on Human immunodeficiency virus 1; recorded EC50 was > 23 µM

Lab note: molecule "Cc1cc(C)c(Oc2cc(NC3CCN(Cc4ccccc4C)CC3)nc3ncnn23)c(C)c1" tested on Human immunodeficiency virus 1; recorded EC50 was > 24 µM

Lab note: molecule "Cc1ccnc2c1NC(=O)c1cccnc1N2C1CC1" tested on Human immunodeficiency virus 1; recorded EC50 was ≥ 7.6 µM

Lab note: molecule "Cc1cc(C)c(Oc2cc(NC3CCN(Cc4ccccc4)CC3)nc3ncnn23)c(C)c1" tested on Human immunodeficiency virus 1; recorded EC50 was > 25 µM

Lab note: molecule "Cc1cc(C)c(Oc2cc(NC3CCN(Cc4ccc(F)cc4F)CC3)nc3ncnn23)c(C)c1" tested on Human immunodeficiency virus 1; recorded EC50 was > 23 µM

Lab note: molecule "Cc1cc(C)c(Oc2cc(NC3CCN(Cc4ccncc4)CC3)nc3ncnn23)c(C)c1" tested on Human immunodeficiency virus 1; recorded EC50 was 6.4 µM

Lab note: molecule "Cc1cc(C)c(Oc2cc(NC3CCN(Cc4ccc(S(C)(=O)=O)cc4)CC3)nc3ncnn23)c(C)c1" tested on Human immunodeficiency virus 1; recorded EC50 was 13 µM

Lab note: molecule "Cc1cc(C)c(Oc2cc(NC3CCN(Cc4ccc(F)cc4)CC3)nc3ncnn23)c(C)c1" tested on Human immunodeficiency virus 1; recorded EC50 was > 24 µM
